# target desc: UniProt P14174
# Sequence (P14174 whole entry): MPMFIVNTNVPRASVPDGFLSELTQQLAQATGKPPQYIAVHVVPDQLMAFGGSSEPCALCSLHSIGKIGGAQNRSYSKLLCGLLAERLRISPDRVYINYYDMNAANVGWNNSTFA
# test details: Inhibition of human recombinant MIF ketonase activity using phenylpyruvate as substrate
# cond: read-out: IC50
pIC50: −log10 of the molar value.
metric name: pIC50

The following molecules have reported results that may help.
>>> experimental_value("O=C1/C(=C/C=C/c2ccccc2)CCc2cc(O)ccc21")
4.45
>>> experimental_value("COc1ccc2c(c1)C(=O)/C(=C/c1ccc(OC)c(O)c1)C2")
3.69
>>> experimental_value("O=C1/C(=C/c2ccc(O)cc2)CCCc2ccccc21")
4.17
>>> experimental_value("N#Cc1ccc(/C=C2\\CCc3cc(O)ccc3C2=O)cc1")
4.17
>>> experimental_value("COc1ccc(/C=C2\\CCc3cc(O)ccc3C2=O)cc1")
4.17

I. Cc1ccc(/C=C2\CCc3cc(O)ccc3C2=O)cc1
II. O=C1/C(=C/c2cccc(O)c2)CCc2cc(O)ccc21
Could you please tell me which of these two has the higher pIC50: I or II ? // respond with label for picked entry
II

a. COc1ccc2c(c1)CC/C(=C\c1ccncc1)C2=O
b. CCN(CC)CCOc1ccc(/C=C2\CCc3cc(O)ccc3C2=O)cc1
c. O=C1/C(=C/c2ccc(O)cc2)COc2cc(O)ccc21
Order each entry by recorded pIC50, climbing from the minimum. Give the order by naming the labels one after another as requested.
a, b, c
(a: 4.23, b: 5.06, c: 5.81)

A. O=C1/C(=C/c2cccs2)CCc2cc(O)ccc21
B. O=C1/C(=C/c2ccc(O)cc2)CCc2cc(O)ccc21
C. CC(C)c1ccc(/C=C2\CCc3cc(O)ccc3C2=O)cc1
Sort (3 molecules) by pIC50: min first. Please list the labels according to the requested order.
A, B, C
(A: 4.29, B: 4.62, C: 5.67)

P. O=C1/C(=C/c2cccnc2)CCc2cc(O)ccc21
Q. O=C1/C(=C/c2ccc(O)cc2)CS(=O)(=O)c2ccccc21
Could you tell me which of these two has the smaller pIC50 figure? First: P Second: Q Write the label of whichever entry you select.
P
(P: 4.14, Q: 4.48)
